Test: Fluorescence emission spectra, 15 μM in 90% aqueous, 10% DMSO
Type: physicochemical

compound | Stokes shift
O=C1OC2(c3ccccc31)c1ccc3cc(O)ccc3c1Oc1c2ccc2cc(O)ccc12 [Compound 21, Naphthofluorescein, reference compound] | about 80 nm
COC(=O)c1ccccc1-c1c2ccc3cc(O)ccc3c2oc2c1ccc1cc(=O)ccc12 [Compound 22, naphthofluorescein methyl ester] | about 80 nm
O=C1OC2(c3ccccc31)c1ccc3cccc(O)c3c1Oc1c2ccc2cccc(O)c12 [Compound 7] | about 150 nm
COC(=O)c1ccccc1-c1c2ccc(=[N+](C)C)cc-2oc2c1ccc1cccc(O)c12 [Compound 15d] | about 150 nm
